assay: Pharmacokinetics of single rising oral doses of PDS and food effect in healthy male subjects; type: in vivo, human; conditions: male, human, plasma, po, 2400 mg, single oral 2400 mg, healthy male subjects, n = 5; mean

{"columns": ["recordSmiles", "Cmax / ng/mL"],
 "data": [
  ["O=S(=O)([O-])CCCS(=O)(=O)[O-].[Na+].[Na+]", 6050]
]}

---

experiment: Pharmacokinetics of PDS after single and multiple oral administration in AA amyloidosis patients; assay type: in vivo; conditions: human, plasma, po, 1200 mg, Dose 1200 (mg BID), Month 0 single oral dose, n = 4, mean, read-out: AUC(0-12)
metricName: AUC(0-t) (ng·h/mL)

{"columns": ["compound", "metricName", "unitsOfMeasure", "testResult"],
 "data": [
  ["O=S(=O)([O-])CCCS(=O)(=O)[O-].[Na+].[Na+] [PDS]", "AUC(0-t)", "ng·h/mL", 4210]
]}

---

test: Pharmacokinetics of single and repeated oral doses of PDS in healthy male subjects; type: in vivo, human; settings: male, human, plasma, po, 1600 mg, 1600 mg q.i.d, Day 7 (repeated oral administration), n = 6; mean

{"columns": ["recordSmiles", "AUC(0-t) [ng·h/mL]"],
 "data": [
  ["O=S(=O)([O-])CCCS(=O)(=O)[O-].[Na+].[Na+]", 24500]
]}

---

Test: Pharmacokinetic profile of a single oral dose of 800 mg PDS in subjects with varying degrees of renal impairment vs healthy volunteers
Assay type: in vivo
Conditions: human, plasma, single oral 800 mg, Healthy, GFR >80 mL/min, mean, only subjects with estimable elimination rate constant
Description: An open-label, non-randomized, parallel group study to assess the pharmacokinetic profile of a single oral dose of 800 mg 1,3-propanedisulfonic acid disodium salt (PDS) in subjects with varying degrees of renal impairment as compared to healthy volunteers is conducted. Blood and urine samples are collected for 24 hours following dosing. Plasma and urine concentrations in 1,3-propanedisulfonic acid are determined using validated HPLC methods. […]
metricName: AUC(0-inf)

{"columns": ["molecule", "testResult"],
 "data": [
  ["O=S(=O)([O-])CCCS(=O)(=O)[O-].[Na+].[Na+] [PDS]", "5370 ng·h/mL"]
]}

---

experiment: Pharmacokinetic profile of a single oral dose of 800 mg PDS in subjects with varying degrees of renal impairment vs healthy volunteers; format: in vivo; conditions: human, plasma, single oral 800 mg, Moderate renal impairment, GFR 30-50 mL/min, n = 4, mean

{"columns": ["recordSmiles", "Cmax [ng/mL]"],
 "data": [
  ["O=S(=O)([O-])CCCS(=O)(=O)[O-].[Na+].[Na+]", 2100]
]}

---

test: Pharmacokinetic profile of a single oral dose of 800 mg PDS in subjects with varying degrees of renal impairment vs healthy volunteers; format: in vivo; conditions: human, plasma, single oral 800 mg, Healthy, GFR >80 mL/min, n = 6, median
metricName: Tmax (min)

{"columns": ["compound", "testResult"],
 "data": [
  ["O=S(=O)([O-])CCCS(=O)(=O)[O-].[Na+].[Na+] [PDS]", 30]
]}

---

experiment: Pharmacokinetics of single and repeated oral doses of PDS in healthy male subjects; type: in vivo, human; settings: male, human, plasma, po, 1600 mg, 1600 mg q.i.d group, Day 1 (single oral administration), n = 6; mean

{"columns": ["compound", "unitsOfMeasure", "AUC(0-t)"],
 "data": [
  ["O=S(=O)([O-])CCCS(=O)(=O)[O-].[Na+].[Na+] [PDS]", "ng·h/mL", 8300]
]}
